These entries and their values trace back to patent US20200399385A1.

# tested_on: T1, cynomolgus OX40 on cells (cynomolgus, UniProt P43489 29-277 (human entry))
# T1 construct: also called cynoOX40-CHO
# T1 chain: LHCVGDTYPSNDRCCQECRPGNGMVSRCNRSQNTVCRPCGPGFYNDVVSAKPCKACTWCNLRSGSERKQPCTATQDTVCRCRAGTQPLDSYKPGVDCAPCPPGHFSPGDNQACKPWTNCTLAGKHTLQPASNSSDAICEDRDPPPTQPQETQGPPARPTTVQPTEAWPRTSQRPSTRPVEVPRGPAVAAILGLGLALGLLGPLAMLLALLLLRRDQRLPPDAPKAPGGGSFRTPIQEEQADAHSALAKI
# test_name: FACS, activated cyno T cells; mean ± SD, n=4
assay_readout: EC50 (nM)
The answer is to be given in nM; state only the numeric part.

Query :: Entry under review: 6E1 (antibody, V domains shown, also called 6E1.A12.A2; 6E1.A12) VH: QVQLVESGGGVVQPGRSLRLSCAASGFTFSSFAMHWVRQAPGKGLEWVTVISYDGSIKYYTDSVKGRFTFSRDNSKNTLYLQMNSLRAEDTAVYYCTRDGNYGSARYFQHWGQGTLVTVSS VL: EIVLTQSPATLSLSPGERATLSCRASQSVSSYLAWYQQKPGQAPRLLIYDASNRATGIPARFSGSGSGTDFTLTISSLEPEDFAVYYCQQRSNWPYTFGQGTKLEIK . Reported EC50?
Result :: 0.77
